biological target: BRG-1 (Homo sapiens); assay: ATPase catalytic activity assay of BRG-1 (ADP-Glo); assay type: biochemical; conditions: ATPase catalytic activity, ADP-Glo; read-out: BRG1 Max % Inhibition
// reported Emax for each item listed

Example compounds with recorded Emax:
compound: C[C@@H]1CN(c2cccc(-c3csc(NC(=O)CNC(=O)c4cccc5c4OCC[C@@]5(C)C#N)n3)c2)C[C@H](C)O1 [Compound 146]
target or system: BRG-1 (Homo sapiens)
result: > 30%
--
compound: C[C@@]1(CO)CCc2ccc(C(=O)NCC(=O)Nc3nc(-c4cccc(-c5cnccn5)n4)cs3)cc21 [Compound 167]
target or system: BRG-1 (Homo sapiens)
result: > 50%
--
compound: Cn1ncc(-c2cccc(-c3csc(NC(=O)CNC(=O)c4ccc5c(c4)C(C)(CO)CC5)n3)n2)n1 (centres unmarked) [Compound 155]
target or system: BRG-1 (Homo sapiens)
result: > 60%
--
compound: C[C@@H]1CN(c2cccc(-c3csc(NC(=O)CNC(=O)c4ccc5c(c4)CCCOC5)n3)n2)C[C@H](C)O1 [Compound 296]
target or system: BRG-1 (Homo sapiens)
result: > 95%
--
compound: Cn1ncc2ccc(-c3csc(NC(=O)CNC(=O)c4ccc5c(c4)[C@@](C)(CO)CC5)n3)cc21 [Compound 261]
target or system: BRG-1 (Homo sapiens)
result: > 30%
--
compound: Cn1ccc2ccc(-c3csc(NC(=O)CNC(=O)c4cccc(C5(C#N)CCC5)c4)n3)cc2c1=O [Compound 147]
target or system: BRG-1 (Homo sapiens)
result: > 80%
--
compound: C[C@@]1(F)COCc2ccc(C(=O)NCC(=O)Nc3nc(-c4cc(F)cc(C#N)c4)cs3)cc21 [Compound 314]
target or system: BRG-1 (Homo sapiens)
result: > 90%
--
compound: Cc1cc(-c2cccc(-c3csc(NC(=O)CNC(=O)c4ccc5c(c4)[C@@](C)(C#N)CC5)n3)n2)ncn1 [Compound 266]
target or system: BRG-1 (Homo sapiens)
result: > 30%

## Task I am curious: what Emax value has been reported for C[C@@H]1CN(c2cccc(-c3csc(NC(=O)CNC(=O)c4ccc5c(c4)C(F)(C(F)F)CCO5)n3)n2)C[C@H](C)O1 (stereo in doubt) [Compound 273] ?
## Result > 95%

## Task Field request: Emax | item: C[C@@H]1CN(c2cccc(-c3csc(NC(=O)CNC(=O)c4ccc5c(c4)[C@H](CO)CC5)n3)n2)C[C@H](C)O1 [Compound 162]
## Result > 40%

## Task Param item = COC[C@H](NC(=O)c1cccc(C(C)(C)CN)c1)C(=O)Nc1nc(-c2cccc(-c3ccnc(C)c3)c2)cs1 [Compound 68] ; retrieve measured Emax.
## Result > 90%

## Task Given Cc1nccc(-c2cccc(-c3csc(NC(=O)CNC(=O)c4ccc(C)c(C(C)(C)CN)c4)n3)n2)n1 [Compound 206] , state its recorded Emax.
## Result > 70%

## Task Look up Emax for this compound: C[C@@H]1CN(c2cccc(-c3csc(NC(=O)CNC(=O)c4ccc5c(c4)[C@@H](C)COC5)n3)n2)C[C@H](C)O1 [Compound 320]
## Result > 95%

## Task Request the reported Emax associated with CCS1(=O)=NCc2ccc(C(=O)NCC(=O)Nc3nc(-c4cccc(N5C[C@@H](C)O[C@@H](C)C5)c4)cs3)cc21 (some centres unmarked) [Compound 367]
## Result > 85%

###

target: BRG-1 (Homo sapiens, UniProt P51532); experiment: ATPase catalytic activity assay of BRG-1 (ADP-Glo); type: biochemical; details: BRG1 IC50 (μM)*, ATPase catalytic activity, ADP-Glo
Sequence (P51532 whole entry): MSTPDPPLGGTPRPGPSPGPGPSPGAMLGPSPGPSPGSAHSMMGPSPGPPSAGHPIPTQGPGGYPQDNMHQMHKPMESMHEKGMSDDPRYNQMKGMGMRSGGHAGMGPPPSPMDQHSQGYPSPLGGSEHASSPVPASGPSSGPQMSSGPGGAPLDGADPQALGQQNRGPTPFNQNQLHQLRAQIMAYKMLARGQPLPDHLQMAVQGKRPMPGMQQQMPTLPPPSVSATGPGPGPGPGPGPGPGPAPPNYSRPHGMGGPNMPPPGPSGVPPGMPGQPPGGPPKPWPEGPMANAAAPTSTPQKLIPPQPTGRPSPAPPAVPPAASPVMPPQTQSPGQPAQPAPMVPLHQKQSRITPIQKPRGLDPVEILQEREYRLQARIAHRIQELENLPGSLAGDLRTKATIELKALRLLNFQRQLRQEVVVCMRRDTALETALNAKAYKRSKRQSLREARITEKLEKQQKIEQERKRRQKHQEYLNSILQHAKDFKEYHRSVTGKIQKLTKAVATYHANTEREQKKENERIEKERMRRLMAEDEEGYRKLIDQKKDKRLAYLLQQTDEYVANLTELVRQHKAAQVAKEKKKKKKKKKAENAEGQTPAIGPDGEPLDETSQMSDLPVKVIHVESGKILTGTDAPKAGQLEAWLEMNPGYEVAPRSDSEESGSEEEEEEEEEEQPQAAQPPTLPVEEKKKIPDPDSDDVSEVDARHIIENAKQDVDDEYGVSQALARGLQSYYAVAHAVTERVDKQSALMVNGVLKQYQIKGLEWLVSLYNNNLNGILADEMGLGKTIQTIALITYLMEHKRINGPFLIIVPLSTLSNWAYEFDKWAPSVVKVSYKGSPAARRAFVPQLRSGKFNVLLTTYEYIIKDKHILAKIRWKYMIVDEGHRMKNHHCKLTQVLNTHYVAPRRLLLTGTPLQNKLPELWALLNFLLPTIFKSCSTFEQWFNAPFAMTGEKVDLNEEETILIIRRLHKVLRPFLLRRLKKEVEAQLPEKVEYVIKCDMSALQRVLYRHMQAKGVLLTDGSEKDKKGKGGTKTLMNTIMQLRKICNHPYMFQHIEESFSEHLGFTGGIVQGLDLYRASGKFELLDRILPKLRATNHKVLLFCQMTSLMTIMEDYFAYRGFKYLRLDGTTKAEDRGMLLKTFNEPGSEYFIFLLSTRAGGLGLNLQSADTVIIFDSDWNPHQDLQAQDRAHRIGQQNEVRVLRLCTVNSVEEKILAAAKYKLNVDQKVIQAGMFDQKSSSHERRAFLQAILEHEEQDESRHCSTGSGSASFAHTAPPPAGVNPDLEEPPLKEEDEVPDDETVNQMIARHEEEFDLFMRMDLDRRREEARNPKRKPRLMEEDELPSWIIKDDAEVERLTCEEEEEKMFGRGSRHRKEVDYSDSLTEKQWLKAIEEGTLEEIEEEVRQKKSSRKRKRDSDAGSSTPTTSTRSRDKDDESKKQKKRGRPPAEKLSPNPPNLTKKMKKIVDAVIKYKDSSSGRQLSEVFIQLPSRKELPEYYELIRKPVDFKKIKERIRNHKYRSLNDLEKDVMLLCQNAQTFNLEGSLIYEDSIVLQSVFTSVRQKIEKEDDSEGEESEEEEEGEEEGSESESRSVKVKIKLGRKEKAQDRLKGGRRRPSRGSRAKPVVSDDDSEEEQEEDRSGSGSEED
assay metric: IC50

molecule: CC(C)S(=O)(=O)c1cccc(C(=O)NCC(=O)Nc2nc(-c3cccc(-c4ccnc(N)c4)c3)cs2)c1 [Compound 22]
IC50: 0.1 to 1 µM

We next turn to a different molecule, shown below.
## Task Recorded IC50 of CC(C)S(=O)(=O)c1cccc(C(=O)NCC(=O)Nc2nc(-c3cccc(-c4cccc(Cl)c4)c3)cs2)c1 [Compound 28] , please.
## Result 1 to 5 µM

###

molecular target: UniProt:P51532; assay: ATPase catalytic activity assay of BRG-1 (ADP-Glo); format: biochemical; conditions: ATPase catalytic activity, ADP-Glo; read-out: BRG1 IC50 (μM)*
assay metric: IC50

Study these solved cases before continuing.
compound: CCc1ccc(C(=O)NCC(=O)Nc2nc(-c3cccc(-c4ccn(C)n4)c3)cs2)cc1C(C)(C)CN [Compound 71]
assay metric: IC50
result: > 5 µM
--
compound: COc1nc(C)cc(-c2cccc(-c3csc(NC(=O)CNC(=O)c4cccc(S(=O)(=O)C(C)C)c4)n3)c2)n1 [Compound 122]
assay metric: IC50
result: < 0.1 µM
--
compound: Cc1ccc(C(=O)NCC(=O)Nc2nc(-c3cccc(N4C[C@@H](C)O[C@@H](C)C4)n3)cs2)cc1C(C)(C)CO [Compound 237]
assay metric: IC50
result: 0.1 to 1 µM
--
compound: Cc1cc(-c2cccc(-c3csc(NC(=O)CNC(=O)c4ccc5c(c4)[C@@](C)(CN)CCC5)n3)c2)cc(C)n1 [Compound 251]
assay metric: IC50
result: > 5 µM
--
compound: Cc1nccc(-c2cccc(-c3csc(NC(=O)CNC(=O)c4cccc(S(=O)(=O)C(C)C)c4)n3)n2)n1 [Compound 121]
assay metric: IC50
result: 1 to 5 µM

## Task Request: IC50, test system UniProt:P51532, entry C[C@@]1(C#N)COCc2ccc(C(=O)NCC(=O)Nc3nc(-c4ccccc4)cs3)cc21 [Compound 323]
## Result 0.1 to 1 µM

## Task What reported IC50 corresponds to CN1CCOc2ccc(-c3csc(NC(=O)CNC(=O)c4ccc5c(c4)[C@](C)(CO)CC5)n3)cc21 [Compound 173] on UniProt:P51532?
## Result 0.1 to 1 µM

###

Listing of recorded Emax by entry.
molecular target: BRG-1 (Homo sapiens, UniProt P51532); experiment: ATPase catalytic activity assay of BRG-1 (ADP-Glo); assay type: biochemical; conditions: ATPase catalytic activity, ADP-Glo, 30 nM BRG-1, 400 μM ATP; read-out: BRG1 Max % Inhibition

compound: CO[C@H]1C[C@@](F)(c2cccc(C(=O)NCC(=O)Nc3nc(-c4cccc(N5C[C@@H](C)O[C@@H](C)C5)n4)cs3)c2)C1
assay metric: Emax
result: > 95%

compound: CC1(C#N)CCOc2ccc(C(=O)NCC(=O)Nc3nc(-c4cccc(C5(F)COC5)c4)cs3)cc21 (stereo in doubt)
assay metric: Emax
result: > 95%

compound: COc1cccc(-c2csc(NC(=O)CNC(=O)c3ccc4c(c3)C(C)(C#N)CCO4)n2)c1 (stereo in doubt)
assay metric: Emax
result: > 95%

// next item, Emax requested
## Task Request - read-out Emax | tested on BRG-1 (Homo sapiens, UniProt P51532) | compound C[C@@H]1CN(c2cccc(-c3csc(NC(=O)CNC(=O)c4cccc(C5(F)CCOC5)c4)n3)n2)C[C@H](C)O1 (stereo in doubt)
## Result > 90%

###

A collection of compounds and their measured Emax
target: BRG-1 (Homo sapiens, UniProt P51532); assay: ATPase catalytic activity assay of BRG-1 (ADP-Glo); type: biochemical; details: ATPase catalytic activity, ADP-Glo; read-out: BRG1 Max % Inhibition

Consider the worked cases shown below.
compound: CN1CCOc2ccc(-c3csc(NC(=O)CNC(=O)c4ccc5c(c4)[C@](C)(CO)CC5)n3)cc21
Emax: > 80%
//
compound: C[C@@]1(CO)CCc2ccc(C(=O)NCC(=O)Nc3nc(-c4cccc(-c5cccnc5O)n4)cs3)cc21
Emax: < 30%

## Task Quick check: Emax of CC1(C#N)CCOc2ccc(C(=O)NCC(=O)Nc3nc(-c4cccc([C@H]5CC5(F)F)n4)cs3)cc21 (stereo in doubt) ?
## Result > 95%

## Task // returns reported Emax for input C[C@@]1(CO)CCc2c(C(=O)NCC(=O)Nc3nc(-c4cccc(-c5ccncc5)c4)cs3)cccc21
## Result < 30%

## Task # lookup: Emax of Cn1ncc(-c2cccc(-c3csc(NC(=O)CNC(=O)c4cccc(C(C)(C)CO)c4)n3)c2)n1
## Result > 80%

## Task Dear colleague, I am looking for the recorded Emax of the following compound: C[C@@H]1CN(c2cccc(-c3csc(NC(=O)CNC(=O)c4cccc(C5(F)COCC5O)c4)n3)n2)C[C@H](C)O1 (some centres unmarked)
## Result > 95%

## Task Which Emax is listed for C[C@@H]1CN(c2cccc(-c3csc(NC(=O)CNC(=O)c4ccc5c(c4)[C@](C)(CO)CC5)n3)n2)C[C@H](C)O1 ?
## Result > 80%

## Task Any idea what Emax was measured for COc1cccc(-c2csc(NC(=O)CNC(=O)c3ccc4c(c3)[C@](C)(C#N)COC4)n2)c1F ?
## Result > 95%

## Task Would you kindly share the measured Emax for Cc1cc(-c2cccc(-c3csc(NC(=O)CNC(=O)c4ccc5c(c4)[C@](C)(CO)CCC5)n3)n2)ncn1 ?
## Result > 60%
